All values here come from patent US10479780B2.

Molecular target: human Src enzyme (Homo sapiens, UniProt P12931)
Construct: purchased Carna Biosciences, Inc. 08-173
Sequence (P12931 whole entry): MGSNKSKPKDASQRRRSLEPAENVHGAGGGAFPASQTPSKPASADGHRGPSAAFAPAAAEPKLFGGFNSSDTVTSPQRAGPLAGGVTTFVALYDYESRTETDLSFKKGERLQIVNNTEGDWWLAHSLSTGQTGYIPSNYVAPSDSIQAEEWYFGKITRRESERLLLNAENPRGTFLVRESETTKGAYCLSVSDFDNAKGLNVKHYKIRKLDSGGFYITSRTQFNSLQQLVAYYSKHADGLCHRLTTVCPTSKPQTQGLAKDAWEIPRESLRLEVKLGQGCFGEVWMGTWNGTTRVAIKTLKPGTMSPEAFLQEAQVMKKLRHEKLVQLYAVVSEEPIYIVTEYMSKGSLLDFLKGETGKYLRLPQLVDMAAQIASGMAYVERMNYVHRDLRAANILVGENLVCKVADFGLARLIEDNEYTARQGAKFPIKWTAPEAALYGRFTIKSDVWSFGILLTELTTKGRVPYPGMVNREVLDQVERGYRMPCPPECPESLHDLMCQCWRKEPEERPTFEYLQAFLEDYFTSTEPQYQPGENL
Experiment: Src enzyme inhibitory activity (time-resolved fluorometry, biotinylated peptide phosphorylation)
Type: biochemical
Conditions: biotinylated peptide phosphorylation, read-out: SRC_IC50
Method: 2. Src Enzyme Inhibitory Activity Src inhibitory activity was determined based on activity of inhibiting phosphorylation reaction of a biotinylated peptide (EGPWLEEEEEAYGWMDF) using a human Src enzyme (manufactured by Carna Biosciences, Inc., cat 08-173). The phosphorylated biotinylated peptide was detected by time-resolved fluorometry using an anti-phosphorylated tyrosine antibody conjugated to europium cryptate, and streptavidin conjugated to XL665, an allophycocyanin derivative. […]
Parameter: IC50. Scope: all listed entries.

// solved cases for IC50 follow
Cc1cc2cc(C(=O)c3cnn(-c4c(C)cc(Oc5cccc(Cl)c5)cc4F)c3N)[nH]c2cc1NS(C)(=O)=O [Example 4-2-059]
390 nM
Cc1cc(Oc2ccccc2F)ccc1-n1ncc(C(=O)c2cc3cc(NS(C)(=O)=O)c(F)cc3[nH]2)c1N [Example 4-2-097]
8.1 nM
Cc1cnc(F)c(S(=O)(=O)Nc2cc3[nH]c(C(=O)c4cnn(-c5cnc(Oc6ccccc6F)cc5C)c4N)cc3cc2C)c1 [Example 5-1-504]
630 nM
Cc1cc2cc(C(=O)c3cnn(-c4cnc(Oc5c(F)cccc5F)cc4C)c3N)[nH]c2cc1NS(=O)(=O)N1CCOCC1 [Example 4-2-109]
210 nM
Cc1cc(Oc2cccc(F)c2F)cc(F)c1-n1ncc(C(=O)c2cc3cc(F)c(NS(=O)(=O)N4CCOCC4)cc3[nH]2)c1N [Example 4-5-011]
110 nM

In plain terms, Cc1cc(Oc2ccccc2F)ncc1-n1ncc(C(=O)c2cc3cc(F)c(N4CC(C)(C)NS4(=O)=O)cc3[nH]2)c1N [Example 5-1-421] has a documented IC50 of 84 nM

In plain terms, Cc1cc(Oc2cc(F)ccc2Cl)ncc1-n1ncc(C(=O)c2cc3cc(F)c(NS(C)(=O)=O)cc3[nH]2)c1N [Example 4-2-034] has a documented IC50 of 140 nM
